# assayed system: Sigma non-opioid intracellular receptor 1 (Cavia porcellus) (UniProt Q60492)
# Sequence (Q60492 whole entry, looked up): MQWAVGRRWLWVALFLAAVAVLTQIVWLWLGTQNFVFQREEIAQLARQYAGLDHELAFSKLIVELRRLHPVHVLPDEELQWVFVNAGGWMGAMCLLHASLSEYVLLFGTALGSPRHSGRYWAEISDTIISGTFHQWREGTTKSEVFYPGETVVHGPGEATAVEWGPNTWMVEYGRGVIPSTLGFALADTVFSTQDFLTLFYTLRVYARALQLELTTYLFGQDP
# assay notes: In vitro binding affinity towards Sigma receptor type 1 was determined by measuring its ability to displace [3H](+)-pentazocine from guinea pig brain membrane
measure: Ki (nM)
Numbers only; they are read as nM.

Ask: Fill in the recorded Ki for this molecule, with Sigma non-opioid intracellular receptor 1 (Cavia porcellus) (UniProt Q60492) as test system: `CN1CCC=C(c2nsnc2SCCCF)C1`
Result: 62.1

***
Ask: Fill in the recorded Ki for this molecule, with Sigma non-opioid intracellular receptor 1 (Cavia porcellus) (UniProt Q60492) as test system: `CN1CCC=C(c2nsnc2SCCF)C1`
Result: 21.7
